Source listed as the supplement of paper PMC6555819.

- Tested on: RARa homodimer (NR concentration 270 nM)
- MEASUREMENT_PROTOCOL: PBM binding z-score (relative to random genomic background probes); higher = stronger binding; sequences stand for … in GC…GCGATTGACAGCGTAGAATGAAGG
Please assign a class to every record based on measured PBM binding z-score, with ranges lo = under -0.1, med = from -0.1 up to 0.7, hi = 0.7 and over

BIOSEQUENCE: TAGCCTAGGTCATTGGGCCGGTATAGTACGCATC
TGT: RARa homodimer (NR concentration 270 nM)
DISCRETE_LABEL: med

Challenge: Note: place this sequence into its band. Item: `GCGACTGGGGCATCAGCGGGTTACCATAACTTAA`
Response given: lo

Challenge: Note: place this sequence into its band. Item: `GGAACGAGGGCATTAGAGTTGATAGCATGGCGAT`
Response given: med

Challenge: Note: place this sequence into its band. Item: `TCTGGTTGGTCAAAGGTCACACACTCGAAATGCG`
Response given: hi

Challenge: Note: place this sequence into its band. Item: `CCATACGGGTCACTCCAGGTTATAGCATCGGAGT`
Response given: med

Challenge: Note: place this sequence into its band. Item: `TCTGCTAGGTCAACGACGGTCAGCTAATCTGCTA`
Response given: lo

Challenge: Note: place this sequence into its band. Item: `AGAAAGAGGTTAAGATCAGGGAAACAGAATACAT`
Response given: hi

Challenge: Note: place this sequence into its band. Item: `TGAATGAGTTTATAAGATCAGGGAACGTTGCAAA`
Response given: med

Challenge: Note: place this sequence into its band. Item: `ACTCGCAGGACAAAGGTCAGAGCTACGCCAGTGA`
Response given: med

Challenge: Note: place this sequence into its band. Item: `CGAACTAGGTCAGAACAGGACAGTGAGGGATGAT`
Response given: med

Challenge: Note: place this sequence into its band. Item: `TCGAGTCGGTTACCAATGGGGCATTCAGCTTTCT`
Response given: lo

Challenge: Note: place this sequence into its band. Item: `ACTAGCAGGCCAAGGGTCACCCAAGATTAGTCCG`
Response given: hi

Challenge: Note: place this sequence into its band. Item: `ATCTCTAGGTAACAAGTTCAGTAAAAGAGAGGAC`
Response given: hi

Challenge: Note: place this sequence into its band. Item: `CGAACTAGGTCAAGGACAGTGAGTCTCCGCACGC`
Response given: lo

Challenge: Note: place this sequence into its band. Item: `CGAACTAGGTCAAGGACAGTGCATCTCCGCACGC`
Response given: lo

Challenge: Note: place this sequence into its band. Item: `ATCTCTAGGTAAACATAGTTCAGTGAATGCAAAT`
Response given: hi

Challenge: Note: place this sequence into its band. Item: `TCATAAAGGTAAATGCTAGGTGAAAGTCCGATCT`
Response given: hi

Challenge: Note: place this sequence into its band. Item: `CCGATTGGGGCAAAGGTTACCATACTCAGTACGA`
Response given: lo

Challenge: Note: place this sequence into its band. Item: `TCAGACAGGTGAAGGTAACTAAGGTACGCAGTCG`
Response given: med

----------
For each of the sequences below, state its PBM binding z-score.
- System: RXRa DBDmut IVT, anti-RXR (DBD mutation: RXRa K156A/R161A, NR concentration 90 nM)
- MEASUREMENT_PROTOCOL: PBM binding z-score (relative to random genomic background probes); higher = stronger binding; sequences stand for … in GC…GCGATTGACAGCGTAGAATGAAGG
Give bare numbers.

Sample records with PBM binding z-score:
BIOSEQUENCE: CGAACTAGGTCAGAACAGGACAGTAAAGGATGAT
TGT: RXRa DBDmut IVT, anti-RXR (DBD mutation: RXRa K156A/R161A, NR concentration 90 nM)
PBM binding z-score: 0.613
//
BIOSEQUENCE: TGTATTAGTTGATTAGGGCAACCGAAACAGCGGA
TGT: RXRa DBDmut IVT, anti-RXR (DBD mutation: RXRa K156A/R161A, NR concentration 90 nM)
PBM binding z-score: -0.317
//
BIOSEQUENCE: CAAACTAGGTCGCAGAGGTCAAAGTCCGTGCGTA
TGT: RXRa DBDmut IVT, anti-RXR (DBD mutation: RXRa K156A/R161A, NR concentration 90 nM)
PBM binding z-score: 2.9
//
BIOSEQUENCE: TCATATAGGTAATTCAGGTGAAAGTCGGCATCTA
TGT: RXRa DBDmut IVT, anti-RXR (DBD mutation: RXRa K156A/R161A, NR concentration 90 nM)
PBM binding z-score: 1.73
//
BIOSEQUENCE: ATATGTGGGTTAAGGGTCATTCAGGTTGGTTCGC
TGT: RXRa DBDmut IVT, anti-RXR (DBD mutation: RXRa K156A/R161A, NR concentration 90 nM)
PBM binding z-score: 2.43

Consider `TCATATAGGTAAATGCTAGGTGACAGTCCGATCT` . Its measured PBM binding z-score is 1.28

----------
- System: PXR homodimer (NR concentration 270 nM)
- MEASUREMENT_PROTOCOL: PBM binding z-score (relative to random genomic background probes); higher = stronger binding; sequences stand for … in GC…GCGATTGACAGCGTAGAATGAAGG
Please assign a class to every record based on measured PBM binding z-score, with ranges low value = under -0.05, medium value = from -0.05 up to 0.4, high value = 0.4 and over

BIOSEQUENCE: AGTCAAAGTTCACTCGGTAACGTAAGATTCAGCT
DISCRETE_LABEL: high value

Challenge: Note: place this sequence into its band. Item: `TCTAGCAGGCCTGAGGGTCACTCAAGAGGTACGG`
Response given: low value

Challenge: Note: place this sequence into its band. Item: `TCGAGTAGGTTATGGGCATTCAGAATGGCGTCGA`
Response given: low value

Challenge: Note: place this sequence into its band. Item: `ATCTCTAGGTAACAGTTCAGTGAATCCCGAGGAT`
Response given: high value

Challenge: Note: place this sequence into its band. Item: `TCATATAGGTAAACCGGTGAAAGTCCGTAAGTTA`
Response given: high value

Challenge: Note: place this sequence into its band. Item: `TCGAGTCGGTTAGGGGCATTCAGAATGGCGTCGA`
Response given: low value

Challenge: Note: place this sequence into its band. Item: `TAGCCTAGGTCATTGGTCCAGTATAGTACGCATC`
Response given: medium value

Challenge: Note: place this sequence into its band. Item: `CCTAGTTGCTCAAGGTCACACACGCTATAGGTAC`
Response given: high value

Challenge: Note: place this sequence into its band. Item: `AGAATGAGGTTATACGTAGATCAGCGAAGAAAGT`
Response given: high value

Challenge: Note: place this sequence into its band. Item: `CAAACTAGGTCAAGAGGTCTAAGTCCGCTTCCCG`
Response given: medium value

Challenge: Note: place this sequence into its band. Item: `ATCGAAAGGTCGACGAGGTGAGTCTACACCGTTT`
Response given: high value

Challenge: Note: place this sequence into its band. Item: `CGAACTAGGTCATTGTCAGGACAGTGAATAGTAA`
Response given: high value

Challenge: Note: place this sequence into its band. Item: `ATCTCTAGGTAAGACTCAGTTCAGCGAAGAACGC`
Response given: high value

Challenge: Note: place this sequence into its band. Item: `TCTCGGAGGACACGAAGGTCAGGGCTTTCCAGAG`
Response given: high value

Challenge: Note: place this sequence into its band. Item: `CAGACTGGGGCAGAAAGGTTACCATACCATCCGG`
Response given: low value

Challenge: Note: place this sequence into its band. Item: `AGTCAAAGTCCACTAGGTAACGTAAGATTCAGCT`
Response given: medium value

Challenge: Note: place this sequence into its band. Item: `TGGCCTAGGTCATTCAGGGGCCAGTATAGAAAGC`
Response given: low value

Challenge: Note: place this sequence into its band. Item: `GCTGCTAGGTCAACTGATGGTCGGCTAAAGCTCG`
Response given: low value

Challenge: Note: place this sequence into its band. Item: `GGAACGAGGGCAAAGTTTATAGCATCTGTCGACG`
Response given: high value

----------
For each of the sequences below, state its PBM binding z-score.
- System: PPARg:RXRa (NR concentration 180 nM, RXRa partner concentration 90 nM)
- MEASUREMENT_PROTOCOL: PBM binding z-score (relative to random genomic background probes); higher = stronger binding; sequences stand for … in GC…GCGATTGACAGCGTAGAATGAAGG
Give bare numbers.

List the reported PBM binding z-score of each sequence below.
1. CCGACTGGGTCAGAAAGGTTACCATACCATCCGG
2. ATATGTAGGTTATCGTGTCATTCAGTTTGCGCAT
3. TAGCCTAGGTCATATCGGGCCAGTATACGCTATA
4. CGACCTAGGTCAGAACAGGACAGTGAAGGATGAT

Response given:
3.13
5.76
1.53
1.55
